Reported inhibition at 1 µM values follow for various molecules
molecular target: Human TRPA1 (Homo sapiens); construct: expressed in transfected cells; host or cells: CHO cells; assay: 45Calcium uptake assay: inhibition of AITC induced cellular uptake of radioactive calcium; assay type: cell-based; details: 1.0 μM test compound; AITC (30 μM) induced 45Ca uptake; Human TRPA1 expressing CHO cells; read-out: Percentage inhibition at 1.0 μM
property.name: inhibition at 1 µM (%)

* Cn1nc2c(c1CC(=O)Nc1nc(-c3ccc(F)c(F)c3)cs1)c(=O)n(C)c(=O)n2C [Example 51] | 57.5
* Cc1cc2c(c(=O)n(C)c(=O)n2C)n1CC(=O)Nc1nc(-c2cc(F)c(OCC(C)(C)C)c(F)c2)cs1 [Example 24] | 93.9
* Cn1c(=O)c2c(cnn2CC(=O)Nc2nc(-c3cc(F)c(OCC(F)(F)F)c(F)c3)cs2)n(C)c1=O [Example 73] | 99.1
* CC(C)COc1c(F)cc(-c2csc(NC(=O)Cn3ncc4c3c(=O)n(C)c(=O)n4C)n2)cc1F [Example 74] | 92.1
* Cc1cn(CC(=O)Nc2nc(-c3ccc(C(F)(F)F)c(F)c3)cs2)c2c(=O)n(C)c(=O)n(C)c12 [Example 35] | 64.7
* Cc1nn(CC(=O)Nc2nc(-c3cc(Cl)c(OCC(C)(C)C)c(Cl)c3)cs2)c2c(=O)n(C)c(=O)n(C)c12 [Example 83] | 75.6
* Cn1nc2c(c1CC(=O)Nc1nc(-c3ccc(C(F)(F)F)c(F)c3F)cs1)c(=O)n(C)c(=O)n2C [Example 62] | 90.3
* Cn1nc2c(c1CC(=O)Nc1nc(-c3ccc(F)c(OC(F)(F)F)c3)cs1)c(=O)n(C)c(=O)n2C [Example 60] | 93.4
* Cn1nc2c(c1CC(=O)Nc1nc3cc(OC(F)(F)F)ccc3s1)c(=O)n(C)c(=O)n2C [Example 66] | 45
* Cn1nc2c(c1CC(=O)Nc1nc(-c3ccc(C(F)(F)F)c(F)c3)c[nH]1)c(=O)n(C)c(=O)n2C [Example 85] | 44.1
* Cn1nc2c(c1CC(=O)Nc1nc(-c3cccc(OC(F)(F)F)c3)cs1)c(=O)n(C)c(=O)n2C [Example 49] | 52.3
* Cn1c(=O)c2c(ccn2CC(=O)Nc2nc(-c3ccc(F)c(C(F)(F)F)c3)cs2)n(C)c1=O [Example 2] | 35.4
* Cn1c(=O)c2c(ccn2CC(=O)Nc2nc(-c3cc(F)c(OCC4CC4)c(F)c3)cs2)n(C)c1=O [Example 17] | 33.5
* Cn1c(=O)c2c(cnn2CC(=O)Nc2nc(-c3cc(Cl)c(OCC(C)(C)C)c(Cl)c3)cs2)n(C)c1=O [Example 79] | 100

###

target: Human TRPA1 (Homo sapiens, UniProt O75762); construct: expressed in transfected cells; host or cells: CHO cells; assay: 45Calcium uptake assay: inhibition of AITC induced cellular uptake of radioactive calcium; format: cell-based; conditions: 10.0 μM test compound; AITC (30 μM) induced 45Ca uptake; Human TRPA1 expressing CHO cells; read-out: Percentage inhibition at 10.0 μM
Sequence (O75762 whole entry): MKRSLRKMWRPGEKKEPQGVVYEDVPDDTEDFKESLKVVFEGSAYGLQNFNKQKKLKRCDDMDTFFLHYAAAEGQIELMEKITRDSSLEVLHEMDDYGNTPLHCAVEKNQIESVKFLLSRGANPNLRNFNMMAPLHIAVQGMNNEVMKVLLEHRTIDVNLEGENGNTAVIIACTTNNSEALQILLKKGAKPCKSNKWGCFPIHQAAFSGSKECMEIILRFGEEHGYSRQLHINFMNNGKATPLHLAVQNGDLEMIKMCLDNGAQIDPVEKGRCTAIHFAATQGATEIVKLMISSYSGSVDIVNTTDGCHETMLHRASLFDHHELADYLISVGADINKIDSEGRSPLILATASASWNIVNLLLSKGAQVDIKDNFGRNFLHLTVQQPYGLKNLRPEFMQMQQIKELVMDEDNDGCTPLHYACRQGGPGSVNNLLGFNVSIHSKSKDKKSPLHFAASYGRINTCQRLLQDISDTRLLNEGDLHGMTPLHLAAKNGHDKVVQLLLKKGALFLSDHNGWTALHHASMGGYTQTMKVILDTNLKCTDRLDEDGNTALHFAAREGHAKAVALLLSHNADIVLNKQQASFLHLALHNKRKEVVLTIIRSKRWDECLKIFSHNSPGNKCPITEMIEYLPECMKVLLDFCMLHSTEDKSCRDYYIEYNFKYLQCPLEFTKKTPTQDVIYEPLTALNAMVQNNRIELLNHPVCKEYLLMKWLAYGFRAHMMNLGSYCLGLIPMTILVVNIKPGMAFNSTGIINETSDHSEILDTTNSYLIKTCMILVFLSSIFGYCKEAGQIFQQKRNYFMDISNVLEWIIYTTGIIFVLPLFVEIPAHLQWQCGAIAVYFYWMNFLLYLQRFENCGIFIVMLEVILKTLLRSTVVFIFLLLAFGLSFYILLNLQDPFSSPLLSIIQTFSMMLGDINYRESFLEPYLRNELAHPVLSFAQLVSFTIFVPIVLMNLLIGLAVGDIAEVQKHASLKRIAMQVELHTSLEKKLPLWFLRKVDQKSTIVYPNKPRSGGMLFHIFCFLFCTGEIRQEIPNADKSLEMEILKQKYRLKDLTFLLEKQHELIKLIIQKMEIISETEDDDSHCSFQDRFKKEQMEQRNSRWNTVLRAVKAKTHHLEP
Reported inhibition at 10 µM values follow for various compounds
property.name: inhibition at 10 µM (%)

• Cn1c(=O)c2c(CC(=O)Nc3nc(-c4cc(F)c(OCC(F)(F)F)c(F)c4)cs3)cn(C)c2n(C)c1=O = 77
• Cc1cc2c(c(=O)n(C)c(=O)n2C)n1CC(=O)Nc1nc(-c2cc(F)c(OCC(C)(C)C)c(F)c2)cs1 = 99.4
• CN(C)Cc1cn(CC(=O)Nc2nc(-c3cc(F)c(OCC(C)(C)C)c(F)c3)cs2)c2c(=O)n(C)c(=O)n(C)c12 = 21.1
• Cn1c(=O)c2c(cnn2CC(=O)Nc2nc(-c3cc(F)c(OCC4CCC4)c(F)c3)cs2)n(C)c1=O = 100
• Cn1c(=O)c2c(cnn2CC(=O)Nc2nc(-c3ccc(Cl)cc3)cs2)n(C)c1=O = 98.4
• CC(C)CCOc1c(F)cc(-c2csc(NC(=O)Cn3ccc4c3c(=O)n(C)c(=O)n4C)n2)cc1F = 37.3
• Cn1c(=O)c2c(ccn2CC(=O)Nc2nc(-c3ccc(F)c(C(F)(F)F)c3F)cs2)n(C)c1=O = 91.3
• Cn1c(=O)c2c(ccn2CC(=O)Nc2nc(-c3ccc(OCC(F)(F)F)c(Br)c3)cs2)n(C)c1=O = 92.2
• Cc1cc2c(c(=O)n(C)c(=O)n2C)n1CC(=O)Nc1nc(-c2ccc(F)c(C(F)(F)F)c2F)cs1 = 94.8
• Cn1nc2c(c1CC(=O)Nc1nc(-c3cc(C(F)(F)F)ccc3F)cs1)c(=O)n(C)c(=O)n2C = 49.8
• Cn1nc2c(c1CC(=O)Nc1nc(-c3ccc(C(F)(F)F)c(F)c3)cs1)c(=O)n(C)c(=O)n2C = 99.6
• Cn1c(=O)c2c(cnn2CC(=O)Nc2nc(-c3cc(F)c(OC(F)F)c(F)c3)cs2)n(C)c1=O = 97.7
• Cc1cc2c(c(=O)n(C)c(=O)n2C)n1CC(=O)Nc1nc(-c2ccc(C(F)(F)F)c(F)c2)cs1 = 99.4
• Cn1c(=O)c2c(cnn2CC(=O)Nc2nc(-c3ccc(F)c(C(F)(F)F)c3F)cs2)n(C)c1=O = 99.3
• Cn1c(=O)c2c(ccn2CC(=O)Nc2nc(-c3ccc(F)c(C(F)(F)F)c3)cs2)n(C)c1=O = 79.5
